Test system: MS2 coat protein
assayDetails: apparent KD of MS2 coat protein; designed switch direction (-1 OFF switch, 1 ON switch): -1; higher = weaker reporter binding
conditionsUsed: Eterna round: R95; input ligand: microRNA oligo, concentration not stated
readoutKind: apparent KD of MS2 coat protein (nM)
State just the number; it will be interpreted in nM.

Previously resolved entries follow.
- residueSequence: "UUAUUUAGUGUGAGGAUAUGCUGGUCCUUGGAUCAGCAGAAGGCACAUGAGGAUCACCCAUGUAAUAUAUUAAU [JL bmx4 3.06] (puzzle: Brourd's mod of Exclusion 4)"
  targetSystem: "MS2 coat protein"
  apparent KD of MS2 coat protein / nM: 73.1
- residueSequence: "GGUCUGCGAGGAUAUACAUGAGGAUCACCCAUGUGCGAGAUACUAGUGAGGUCGAUUGGUAGAAGGCGCGGACA [Mat - Exclusion 3 - Mod of JL D84] (puzzle: Exclusion 3)"
  targetSystem: "MS2 coat protein"
  apparent KD of MS2 coat protein / nM: 90.4
- residueSequence: "AGAUGUAGAUACCGAUCCUACAUGAGGAUCACCCAUGUAGCUAGACGUGCACGCGUAGCUCGUCAGACUACCAGAAG [salish99_TOv1_r3_085] (puzzle: Sensor v3, turn-off variant 1)"
  targetSystem: "MS2 coat protein"
  apparent KD of MS2 coat protein / nM: 147
- residueSequence: "AGUACUAACACGUGAGUGUUAGUACAAUAAGCUUGUGAAACAUGAGGAUCACCCAUGUCCUCAUAAGCUCGUCUUAU [salish99_TOv2_r3_061] (puzzle: Sensor v3, turn-off variant 2)"
  targetSystem: "MS2 coat protein"
  apparent KD of MS2 coat protein / nM: 1070
- residueSequence: "AGAAGUAGUAACCGAUCCUACAUGAGGAUCACCCAUGUAGCCAGACGUGCACGCGAAGCUCGUCAGACUACCAGAUG [salish99_TOv1_r3_026] (puzzle: Sensor v3, turn-off variant 1)"
  targetSystem: "MS2 coat protein"
  apparent KD of MS2 coat protein / nM: 447

Would you kindly look at the next entry?
apparent KD of MS2 coat protein for MS2 coat protein with input UUUUCUUUUGUGAGGAUAUACUUGUUUUUUUUUUUGUAGAAGGCACAUGAGGAUCACCCAUGUACUCUUUCCUG [JR_BME4_Sub024] (puzzle: Brourd's mod of Exclusion 4) equals 20.1
